Reference source for all entries: ChEMBL document CHEMBL5500387

# ASSAY_REMARKS: Selectivity index, ratio of IC50 for human NCM460 cells to IC50 for human HCT-116 cells
# Type: toxicity
# CONDITION_SET: NCM460 cells and HCT-116 cells, read-out: Ratio IC50
QUANTITY_NAME: selectivity ratio
Hey, just send me the number, nothing else.

QUERY: Which selectivity ratio value belongs to COc1ccc(/C=C(/C(=O)N2CCN(c3ccc(C)cc3)CC2)c2cc(OC)c(OC)c(OC)c2)cc1O ?
RESULT: 4.8

---

# ASSAY_REMARKS: Octanol-water partition coefficient, log P of the compound at pH 7.4 at 4 mg measured after 24 hrs by liquid chromatography
# Assay type: physicochemical
Below: a set of entries, each annotated with reported logD at 24 h.
Hey, just send me the number, nothing else.

Worked cases, logD at 24 h given:
COMPOUND	QUANTITY_NAME	VAL
COc1ccc(/C=C\c2cc(OC)c(OC)c(OC)c2)cc1O [COMBRETASTATIN A4]	logD at 24 h	2.14
COc1ccc(/C=C(/C(=O)N2CCN(c3ccc(C)cc3)CC2)c2cc(OC)c(OC)c(OC)c2)cc1O[C@H]1O[C@H](CO)[C@@H](O)[C@H](O)[C@@H]1O	logD at 24 h	-0.638
COc1ccc(/C=C(/C(=O)N2CCN(c3ccc(C)cc3)CC2)c2cc(OC)c(OC)c(OC)c2)cc1O[C@H]1O[C@@H](CO)[C@H](O)[C@@H](O)[C@@H]1O	logD at 24 h	-0.538
COc1ccc(/C=C(/C(=O)N2CCN(c3ccc(C)cc3)CC2)c2cc(OC)c(OC)c(OC)c2)cc1O[C@H]1O[C@@H](CO)[C@@H](O)[C@@H](O)[C@@H]1O	logD at 24 h	-0.432
COc1ccc(/C=C(/C(=O)N2CCN(c3ccc(C)cc3)CC2)c2cc(OC)c(OC)c(OC)c2)cc1O	logD at 24 h	-0.013

QUERY: Which logD at 24 h value belongs to COc1ccc(/C=C(/C(=O)N2CCN(c3ccc(C)cc3)CC2)c2cc(OC)c(OC)c(OC)c2)cc1O[C@H]1O[C@@H](CO)[C@H](O[C@@H]2O[C@H](CO)[C@H](O)[C@H](O)[C@H]2O)[C@@H](O)[C@@H]1O ?
RESULT: -0.824

---

# System: A549
# ASSAY_REMARKS: Cytotoxicity against human A549 cells assessed as inhibition of cell proliferation measured after 72 hrs by CCK-8 assay
# Format: functional, cell-based
# CONDITION_SET: A549, 72 h
QUANTITY_NAME: pIC50
FYI, pIC50 means -log10 of a concentration in mol per litre.

> print(dat)
                                   molecule   val
1  COc1ccc(N2CCN(C(=O)/C(=C/c3ccc(OC)c(O)c3)c3cc(OC)c(OC)c(OC)c3)CC2)cc1  6.18
2  COc1ccc(/C=C(/C(=O)N2CCN(c3ccc(F)cc3)CC2)c2cc(OC)c(OC)c(OC)c2)cc1O  6.57
3  COc1ccc(/C=C(/C(=O)N2CCN(c3ccc(C)cc3)CC2)c2cc(OC)c(OC)c(OC)c2)cc1O  6.60
4  COc1ccc(/C=C(/C(=O)N2CCN(c3ccc(Br)cc3)CC2)c2cc(OC)c(OC)c(OC)c2)cc1O  6.26

QUERY: Which pIC50 value belongs to COc1ccc(/C=C(/C(=O)N2CCN(c3ccc(Cl)cc3)CC2)c2cc(OC)c(OC)c(OC)c2)cc1O ?
RESULT: 6.44
